assay: Half life in rat plasma at 37 degC; assay type: ADME, cell-free
Metric Name: half-life

Task: # half-life lookup, item CSCC[C@H](NC(=O)[C@H](CS)NC(=O)[C@H](CCCNC(=N)N)NC(=O)[C@H](CCCNC(=N)N)NC(=O)[C@@H]1CCC(=O)N1)C(=O)N1CCC[C@H]1C(=O)N[C@@H](CC(C)C)C(=O)N[C@@H](Cc1cnc[nH]1)C(=O)N[C@@H](CO)C(=O)N[C@@H](CCCNC(=N)N)C(=O)N[C@H](C(=O)N1CCC[C@H]1C(=O)N[C@@H](Cc1ccccc1)C(=O)N1CCC[C@H]1C(=O)O)C(C)C
Result: < 2 min
